Assay Notes: small-molecule microarray binders of probe aEGFR, primary screen, biochemical, biotinylated probe, 635/667 nm fluorescence (AID 1097);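 also: probe is a biotinylated anti-EGFR antibody binding compounds printed on slides; score combines fluorescence near 667 nm and signal to noise of each spot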
Cond: higher = more signal
Property Name: composite z-score

Molecule: O=C1CCCC=C1C(O)COCc1ccccc1 (stereo unspecified)
Property Name: composite z-score
Result: -0.142
//
Molecule: COC(=O)[C@H](CCSC)NC(=O)CC=C[C@@H](C)CO
Property Name: composite z-score
Result: 0.493
//
Molecule: CO[C@H]1COC(=O)[C@H](C)COC(=O)[C@H](C)NC(=O)CC=C[C@H]1C
Property Name: composite z-score
Result: -0.122
//
Molecule: COC(=O)[C@@H]1CC[C@H](C)[C@@H](c2ccc(Br)cc2)N1C(=O)C(F)(F)F
Property Name: composite z-score
Result: -0.226
//
Molecule: CCOC(=O)[C@H](CC(C)C)NC(=O)CCC1CC(OC(=O)NCCc2ccc(F)cc2)CC2(CCCC(COC(=O)NCCOC)O2)O1 (stereo partly specified)
Property Name: composite z-score
Result: -0.0975
//
Molecule: CCOC(=O)[C@H](Cc1ccccc1)NC(=O)CCC1CC(OC(=O)NCc2cccc3ccccc23)CC2(CCCC(COC(=O)NCC3CCCCC3)O2)O1 (stereo partly specified)
Property Name: composite z-score
Result: -0.0381
//
Molecule: CCOC(=O)[C@H](CC(C)C)NC(=O)CCC1CC(OC(=O)NCc2ccc3c(c2)OCO3)CC2(CCCC(COC(=O)NCCc3ccccc3OC)O2)O1 (stereo partly specified)
Property Name: composite z-score
Result: -0.0177
//
Molecule: CCN1C(=O)[C@H]2[C@H]3[C@H](O)[C@H](O)CC(=NOCC(C)C)[C@H]3CC[C@H]2C1=O
Property Name: composite z-score
Result: 0.0167
//
Molecule: O=C1[C@H]2[C@H]3[C@H](O)[C@H](O)CC(=NOC[C@@H](O)COCc4ccco4)[C@@H]3CC[C@H]2C(=O)N1Cc1ccc2c(c1)OCO2
Property Name: composite z-score
Result: -0.0177
//
Molecule: O=C1[C@H]2[C@H]3[C@H](O)[C@H](O)CC(=NO[C@@H]4O[C@H](CO)[C@@H](O)[C@H](O)[C@H]4O)[C@@H]3CC[C@H]2C(=O)N1C[C@@H]1CCCO1
Property Name: composite z-score
Result: 0.0934
//
Molecule: CCOC(=O)CCN1C(=O)[C@H]2[C@H]3[C@H](O)[C@H](O)CC(=O)[C@@H]3CC[C@H]2C1=O
Property Name: composite z-score
Result: 0.0004
//
Molecule: C=CC[C@@H]1C=CC(ON=C(C)C)[C@@H](CO)O1 (stereo partly specified)
Property Name: composite z-score
Result: -0.215
//
Molecule: C[C@@H](c1ccccc1)N1C(=O)[C@H]2[C@H]3[C@H](O)[C@H](O)CC(=NOCc4ccccc4)[C@@H]3CC[C@H]2C1=O
Property Name: composite z-score
Result: -0.203
//
Molecule: O=C1[C@H]2[C@H]3[C@H](O)[C@H](O)CC(=NOC[C@@H](O)COCc4ccco4)[C@@H]3CC[C@H]2C(=O)N1C1CCCCC1
Property Name: composite z-score
Result: 0.0583
//
Molecule: CC(C)=CCCC(C)=CCON=C1C[C@@H](O)[C@@H](O)[C@@H]2[C@@H]3C(=O)N([C@@H](C)c4ccccc4)C(=O)[C@@H]3CC[C@@H]12
Property Name: composite z-score
Result: -0.111
//
Molecule: CC(C)=NOC[C@@H](O)[C@H]1O[C@@H]2OC(C)(C)O[C@@H]2[C@H]1O
Property Name: composite z-score
Result: 0.0727
